# Assay summary: CCTE_Mundy_HCI_Cortical_Synap_Neur_Matur_SynapseCount: CCTE's Synaptogenesis and Neurite Maturation Assay in rat cortical cells for Synapse Count, Mundy Lab (AID 2284218)
# Protocol: CCTE_Mundy_HCI_Cortical_Synap&Neurite_Matur is a multiplexed, cell-based-readout assay that uses rat primary cortical cells with measurements taken at 288.33 hours after chemical dosing in a microplate: 96-well plate.CCTE_Mundy_HCI_Cortical_Synap_Neur_Matur_SynapseCount is one of eight components of the CCTE_Mundy_HCI_Cortical_Synap&Neurite_Matur assay. […]
Activity calls are given as the source filed them. Rule for the calls: active = hit-call score of the fitted dose curve at least 0.9, where 1 is the maximum; inactive = score below 0.9.
Possible outcomes: active, inactive

Compound | Group
CC(C)O | inactive
CCCCCC(C)(CC)C(=O)NC (stereo unspecified) | inactive
[O]=[V]([OH])([OH])[OH] | active
F | inactive
C[C@@H]1CC[C@@H](C(C)(C)O)[C@H](O)C1 | inactive
CCCCCC=C(C)C(CC)CCO (stereo unspecified) | inactive
O=C1CC2(CCCC2)CC(=O)N1CCCCN1CCN(c2ncccn2)CC1 | inactive
CC(CNC(=S)[S-])NC(=S)[S-].[Zn+2] (stereo unspecified) | active
CCc1ccccc1 | inactive
BrC1CC(Br)CC(Br)CC(Br)CC(Br)CC(Br)C1 (stereo unspecified) | active
CC(C)c1nn(C(=O)NC(C)(C)C)c(=O)n1N | inactive

---

# Target system: Cellular tumor antigen p53 (Homo sapiens) (UniProt P04637)
# Sequence (P04637 whole entry, looked up): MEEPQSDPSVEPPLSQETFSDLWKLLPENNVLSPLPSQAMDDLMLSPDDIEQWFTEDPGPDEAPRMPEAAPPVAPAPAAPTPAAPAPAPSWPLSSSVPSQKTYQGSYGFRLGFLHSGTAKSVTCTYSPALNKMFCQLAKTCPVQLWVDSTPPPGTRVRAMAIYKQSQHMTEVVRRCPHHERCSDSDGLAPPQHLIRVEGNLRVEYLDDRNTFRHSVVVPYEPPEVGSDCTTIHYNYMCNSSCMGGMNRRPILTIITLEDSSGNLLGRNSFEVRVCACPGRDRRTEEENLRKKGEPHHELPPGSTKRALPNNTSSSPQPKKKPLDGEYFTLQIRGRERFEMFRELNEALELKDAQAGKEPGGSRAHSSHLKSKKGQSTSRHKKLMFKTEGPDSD
# Assay summary: TOX21_p53_BLA_p2_ratio: Tox21 HCT-116 p53 Agonism Beta-lactamase Assay, Ratio, Phase 2 (AID 2283592)
Results filed as inconclusive are left out. Calls of active or inactive are those of the source. The calls were made as follows: active = hit-call score of the fitted dose curve at least 0.9, where 1 is the maximum; inconclusive = response in the unintended direction; inactive = score below 0.9.
Possible outcomes: active, inactive

Molecule | Group
CCCCOC(=O)CCS | inactive
COc1cc(C(=O)NCCCCCC(=O)O)cc(OC)c1OC | inactive
Nc1cccc2c(=O)[nH][nH]c(=O)c12 | inactive
CC(=O)OCC1=C(C(=O)O)N2C(=O)[C@@H](NC(=O)Cc3ccccc3)[C@H]2SC1 | inactive
COc1ccc(C2(C#N)CCC(C(=O)O)CC2)cc1OC1CCCC1 (configuration not stated) | inactive
C[C@@H](N)C(=O)O | inactive
CC(C)S | inactive
CCCOCC(C)OCC(C)O (configuration not stated) | inactive
C=C1[C@H](CO)[C@@H](O)C[C@@H]1n1cnc2c(=O)[nH]c(N)nc21 | inactive
O=c1c(O)c(O)c1=O | inactive
NC(=O)CC[C@@H](N)C(=O)O | inactive
CCCCCC(C)N (configuration not stated) | inactive
COc1ccc(-c2cc(=O)c3c(O)cc(O[C@@H]4O[C@H](CO[C@@H]5O[C@@H](C)[C@H](O)[C@@H](O)[C@H]5O)[C@@H](O)[C@H](O)[C@H]4O)cc3o2)cc1O | inactive
NS(=O)(=O)c1cc2c(cc1Cl)NC(C(Cl)Cl)NS2(=O)=O (configuration not stated) | inactive
O=C(c1ccc(O)cc1)c1ccc(O)cc1 | inactive
CC(=O)N[C@@H](Cc1ccc(O)cc1)C(=O)O | inactive
NS(=O)(=O)c1cc(-c2nn[nH]n2)c(NCc2cccs2)cc1Cl | inactive
Cc1cc(O)ccc1O | inactive
CCCC(C)C | inactive
CC=C(Cl)Cl | inactive
C=C(C)C(=O)NCCC[N+](C)(C)C | inactive
FC(F)(F)c1cccc(Cl)c1 | inactive
N[C@@H](CCC(=O)Nc1ccc([N+](=O)[O-])cc1)C(=O)O | inactive
OCCOc1ccc(OCCO)cc1 | inactive
CCCCCCCC/C=C\CCCCCCCC(=O)OC | inactive
O=[N+]([O-])c1ccc(Oc2ccc([N+](=O)[O-])cc2)cc1 | inactive
CCOCCC(=O)OCC | inactive
COc1cc(C(=S)N2CCOCC2)ccc1O | inactive
COc1ccc([C@@H]2CC(=O)c3c(O)cc(O[C@@H]4O[C@H](CO[C@@H]5O[C@@H](C)[C@H](O)[C@@H](O)[C@H]5O)[C@@H](O)[C@H](O)[C@H]4O)cc3O2)cc1O | inactive
CCCOC(=O)c1ccc(N)cc1 | inactive
Cc1ncsc1CCO | inactive
Cc1cccc(O)c1N | inactive
O=C1OC(=O)C2CC=CCC12 (configuration not stated) | inactive
Cc1ccc(Cl)c(N)c1Cl | inactive
C[C@@H]1CC[C@@]2(OC1)O[C@H]1C[C@H]3[C@@H]4CC[C@H]5C[C@@H](O)CC[C@]5(C)[C@H]4CC(=O)[C@]3(C)[C@H]1[C@@H]2C | inactive
CC(C(=O)O)c1ccc(C(=O)c2cccs2)cc1 (configuration not stated) | inactive
COc1cc(S(C)=O)ccc1-c1nc2ncccc2[nH]1 (configuration not stated) | inactive
O=C(O)[C@H](O)c1ccccc1 | inactive
CCC(C)(C)CC | inactive
CCCN(CCC)C(=O)C(CCC(=O)O)NC(=O)c1ccccc1 (configuration not stated) | inactive
NC(=O)Nc1nc2ccccc2[nH]1 | inactive
CCCCCCCC/C=C\CCCCCCCC(=O)OCCCC | inactive
CN1CCCN(C(c2ccccc2)c2ccc(Cl)cc2)CC1 (configuration not stated) | inactive
NC(=O)N1c2ccccc2CC(=O)c2ccccc21 | inactive
C[Se]CC[C@H](N)C(=O)O | inactive
CC(C)COC(=O)OCN1C(=O)CN(CCN2CC(=O)N(COC(=O)OCC(C)C)C(=O)C2)CC1=O | active
C[C@]12CC[C@@H]3c4ccc(O)cc4CC[C@H]3[C@@H]1CC[C@@H]2OP(=O)(O)O | inactive
Cc1cccc(C)c1NC(=O)CN1CCCCCC1 | inactive
S=C(SSSSSSC(=S)N1CCCCC1)N1CCCCC1 | inactive
CN(CCOc1ccc(NS(C)(=O)=O)cc1)CCc1ccc(NS(C)(=O)=O)cc1 | inactive
OCl | inactive
N[C@H](C(=O)O)[C@@H](O)c1ccc(O)c(O)c1 | inactive
